Reported self-cleavage values for a set of variants
B1: Hairpin Ribozyme (parent)
chain: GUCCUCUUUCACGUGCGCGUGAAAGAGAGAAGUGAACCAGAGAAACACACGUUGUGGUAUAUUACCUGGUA

- Variants of: B1
- method summary: self-cleavage, relative activity (ratio to wild type); higher = more cleavage; co-transcriptional
Keep the answer to the number alone.

// worked examples, self-cleavage included
{"columns": ["mut", "numeric result"],
 "data": [
  ["U7G A22U", 0.59],
  ["C4A U70G", 0.154],
  ["A30C U63A", 0.267],
  ["U2G G68C", 0.135]
]}

Read the entry C3A A59U and write its reported self-cleavage.
0.126

Read the entry U7G U53A and write its reported self-cleavage.
0.967

Read the entry A11C G54C and write its reported self-cleavage.
0.378
